- assay-notes: Half life in rat microsomes
- Format: ADME, Microsome
List of half-life values.
Write the answer as a number in min, unit excluded.

In [3]: df
Out[3]:
                              given_smiles  endpoint_value
0  CCc1nc(-c2ccc(Cl)cc2Cl)c(CC)nc1CC(CC)CC             2.5

Please report the recorded half-life for CCc1nc(-c2ccc(OC(F)(F)F)cc2OC)c(CC)nc1NC(CC)CC .
2.5

Please report the recorded half-life for CCc1nc(NC(CC)CC)c(F)nc1-c1ccc(Cl)cc1Cl .
21

Please report the recorded half-life for CCc1nc(NC(CC)CC)c(C)nc1-c1ccc(Cl)cc1Cl .
11

Sourced from ChEMBL document CHEMBL1806459
